TEST SYSTEM: D(2) dopamine receptor (Homo sapiens, UniProt P14416)
Sequence (P14416 whole entry): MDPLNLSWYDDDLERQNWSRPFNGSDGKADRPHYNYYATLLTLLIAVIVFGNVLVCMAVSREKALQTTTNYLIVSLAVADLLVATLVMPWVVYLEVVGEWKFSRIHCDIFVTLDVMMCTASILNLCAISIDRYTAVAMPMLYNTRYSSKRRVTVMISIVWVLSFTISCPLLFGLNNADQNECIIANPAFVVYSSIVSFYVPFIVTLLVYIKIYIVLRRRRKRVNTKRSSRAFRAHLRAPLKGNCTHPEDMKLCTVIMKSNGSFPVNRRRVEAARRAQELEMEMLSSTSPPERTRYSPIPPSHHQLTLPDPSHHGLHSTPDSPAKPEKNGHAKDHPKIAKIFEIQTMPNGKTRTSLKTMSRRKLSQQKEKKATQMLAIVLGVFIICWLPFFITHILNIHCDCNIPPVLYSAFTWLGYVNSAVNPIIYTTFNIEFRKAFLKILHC
ASSAY INFO: Displacement of [3H]methylspiperone from human D2 receptor expressed in HEK cells
PROPERTY MEASURED: pKi
Give bare numbers, as −log10 of the molar value.

Quickly give me recorded pKi for CC1(C)CC(=O)N(CCCCN2CCN(c3ncccn3)CC2)C(=O)C1 [GEPIRONE] 5.36

---

ASSAY INFO: Half life in Hartley guinea pig at 1 mg/kg, iv measured up to 180 mins post dose by HPLC analysis
Assay type: ADME, organism-based, Cavia porcellus
SETUP CONDITIONS: in vivo
PROPERTY MEASURED: half-life (h)
Give bare numbers, in h.

Quickly give me recorded half-life for CCOC(=O)CC1CCN(C(=O)CC(CC)NC(=O)c2ccc(C(=N)N3CCSC3)cc2F)CC1 (racemic) 1.83
